Experiment: Pharmacokinetics of three diester alkaloids in rat plasma after oral Aconiti Lateralis Radix extract, with or without 7-day P. ginseng pretreatment
Assay type: in vivo, Sprague-Dawley rats
Details: Sprague-Dawley, rat, in vivo, po, 1 g/kg, oral Aconiti Lateralis Radix extract 1 g/kg on 8th day, P. ginseng-middle (1 g/kg oral, 7 days), read-out: Tmax
Form field: Tmax (one value per entry).
Kindly provide the numeric value in h only, without the unit symbol.

CHEMICAL_STRING	TEST_RESULT
CCN1C[C@]2(COC)[C@H](O)C[C@H](OC)[C@@]34[C@@H]5C[C@@]6(O)[C@H](OC(=O)c7ccccc7)[C@@H]5[C@@](OC(C)=O)([C@@H]([C@H](OC)[C@H]23)[C@@H]14)[C@@H](O)[C@@H]6OC	2.11

Now take the following compound into account.
Query: Please report the recorded Tmax for `COC[C@@]12CC[C@H](OC)[C@]34C(C([C@H](OC)[C@H]13)[C@]1(OC(C)=O)[C@H]3[C@@H](OC(=O)c5ccccc5)[C@](O)(C[C@H]34)[C@@H](OC)[C@@H]1O)N(C)C2` .
Reply: 2.53

----------
Test: Pharmacokinetics of three diester alkaloids in rat plasma after oral Aconiti Lateralis Radix extract, with or without 7-day P. ginseng pretreatment
Format: in vivo, Sprague-Dawley rats
Details: Sprague-Dawley, rat, in vivo, po, 1 g/kg, oral Aconiti Lateralis Radix extract 1 g/kg on 8th day, P. ginseng-low (0.1 g/kg oral, 7 days), read-out: Vz/F
QUANTITY_NAME: Vd/F (L/kg)
Kindly provide the numeric value in L/kg only, without the unit symbol.

COMPOUND	UNIT_TEXT	Vd/F
CCN1C[C@]2(COC)[C@H](O)C[C@H](OC)[C@@]34[C@@H]5C[C@@]6(O)[C@H](OC(=O)c7ccccc7)[C@@H]5[C@@](OC(C)=O)([C@@H]([C@H](OC)[C@H]23)[C@@H]14)[C@@H](O)[C@@H]6OC [Aconitine]	L/kg	2480

Now take the following compound into account.
Query: Please report the recorded Vd/F for COC[C@@]12CC[C@H](OC)[C@]34C(C([C@H](OC)[C@H]13)[C@]1(OC(C)=O)[C@H]3[C@@H](OC(=O)c5ccccc5)[C@](O)(C[C@H]34)[C@@H](OC)[C@@H]1O)N(C)C2 [Hypaconitine] .
Reply: 2020

----------
Assay: Pharmacokinetics of three diester alkaloids in rat plasma after oral Aconiti Lateralis Radix extract, with or without 7-day P. ginseng pretreatment
Format: in vivo, Sprague-Dawley rats
Conditions: Sprague-Dawley, rat, in vivo, po, 1 g/kg, oral Aconiti Lateralis Radix extract 1 g/kg on 8th day, control group (distilled water 7 days), read-out: CLz/F (converted)
QUANTITY_NAME: CL/F (L/h/kg)
Kindly provide the numeric value in L/h/kg only, without the unit symbol.

COMPOUND	TEST_RESULT
CCN1C[C@]2(COC)[C@H](O)C[C@H](OC)[C@@]34[C@@H]5C[C@@]6(O)[C@H](OC(=O)c7ccccc7)[C@@H]5[C@@](OC(C)=O)([C@@H]([C@H](OC)[C@H]23)[C@@H]14)[C@@H](O)[C@@H]6OC [Aconitine]	226

Now take the following compound into account.
Query: Please report the recorded CL/F for COC[C@@]12CC[C@H](OC)[C@]34C(C([C@H](OC)[C@H]13)[C@]1(OC(C)=O)[C@H]3[C@@H](OC(=O)c5ccccc5)[C@](O)(C[C@H]34)[C@@H](OC)[C@@H]1O)N(C)C2 [Hypaconitine] .
Reply: 204
